Experiment: in vivo
Details: mouse, po
REPORTED METRIC: LD50 at 168 h (mg/kg)
Report the figure in mg/kg without appending any unit label.

INPUT: GET /values?readout=LD50 at 168 h&item= CC(=O)c1ccccc1SCC(O)CNC(C)(C)C (racemic) [Beispiel 1]
OUTPUT: 667

* * *

Assay: in vivo
Conditions: mouse, iv
REPORTED METRIC: LD50 at 168 h (mg/kg)
Entry rule: numbers only, all in mg/kg.

COMPOUND: CC(=O)c1ccccc1SCC(O)CNC(C)(C)C (racemic)
UNITS OF MEASURE: mg/kg
LD50 at 168 h: 111

In the following, a different compound is considered.
INPUT: So what's the measured LD50 at 168 h for this one? CC(=O)Nc1ccc(OCC(O)CNC(C)C)cc1 (centres unmarked)
OUTPUT: 148
